# Test system: Nucleic Acid
# Experiment description: Binding constant to poly[d(A-T)] by ethidium bromide displacement
# Assay type: nucleic-acid assay
Property measured: Log K
Answer using only a numeral; do not append any unit.

- Test smiles: "CN(C)CCNC(=O)c1cccc2ccc(-c3ccc(F)cc3)nc12"
  Log K: 6.74
- Test smiles: "CN(C)CCNC(=O)c1cccc2ccc(-c3ccc(NS(C)(=O)=O)cc3)nc12"
  Log K: 6.04
- Test smiles: "CN(C)CCNC(=O)c1cccc2ccc(-c3cccnc3)nc12"
  Log K: 5.81
- Test smiles: "CN(C)CCNC(=O)c1cccc2ccc(-c3cccc(Cl)c3)nc12"
  Log K: 6.05
- Test smiles: "O=C(NCCNCCO)c1cccc2ccc(-c3ccccc3)nc12"
  Log K: 6.22

Query: Recorded Log K of CN(C)CCNC(=O)c1cccc2ccc(-c3ccccc3Cl)nc12 , please.
Result: 5.32

Query: Recorded Log K of CN(C)CCNC(=O)c1cccc2ccc(-c3ccc([N+](=O)[O-])cc3)nc12 , please.
Result: 6.28

Query: Recorded Log K of CN(C)CCNC(=O)c1cccc2ccc(-c3ccncc3)nc12 , please.
Result: 5.82

Query: Recorded Log K of CN(C)CCCCCNC(=O)c1cccc2ccc(-c3ccccc3)nc12 , please.
Result: 5.9

Query: Recorded Log K of CN(C)CCCCNC(=O)c1cccc2ccc(-c3ccccc3)nc12 , please.
Result: 6.19

Query: Recorded Log K of CN(C)CCCNC(=O)c1cccc2ccc(-c3ccccc3)nc12 , please.
Result: 5.9

Query: Recorded Log K of Br.Br.CN(C)CCNC(=O)c1cccc2ccc(-c3ccc(O)cc3)nc12 , please.
Result: 6.3

Query: Recorded Log K of CN(C)CCNC(=O)c1cccc2ccc(-c3ccc(Cl)cc3)nc12 , please.
Result: 6.08

Query: Recorded Log K of CN(C)CCNC(=O)c1cccc2ccc(-c3ccc4ccccc4c3)nc12 , please.
Result: 7

Query: Recorded Log K of CN(C)CCNC(=O)c1cccc2ccc(-c3ccc(S(C)(=O)=O)cc3)nc12 , please.
Result: 5.68

Query: Recorded Log K of COc1cccc(-c2ccc3cccc(C(=O)NCCN(C)C)c3n2)c1 , please.
Result: 6.3

Query: Recorded Log K of CN(C)CCNC(=O)c1cccc2ccc(-c3ccc(C(F)(F)F)cc3)nc12 , please.
Result: 6.64

Query: Recorded Log K of COc1ccc(-c2ccc3cccc(C(=O)NCCN(C)C)c3n2)cc1 , please.
Result: 6.4

Query: Recorded Log K of CN(C)CCNC(=O)c1cccc2ccc(-c3ccccc3)nc12 , please.
Result: 5.98

Query: Recorded Log K of CN(C)CCNC(=O)c1cccc2ccc(-c3ccc(N)cc3)nc12 , please.
Result: 6.42

Query: Recorded Log K of CN(C)CCNC(=O)c1cccc2ccc(-c3ccccn3)nc12 , please.
Result: 5.82

Query: Recorded Log K of CN(C)CCNC(=O)c1cccc2ccc(-c3ccc(I)cc3)nc12 , please.
Result: 6.8

Query: Recorded Log K of CN(C)CCNC(=O)c1cccc2ccc(-c3ccc(Br)cc3)nc12 , please.
Result: 6.63

Query: Recorded Log K of O=C(NCCN1CCOCC1)c1cccc2ccc(-c3ccccc3)nc12 , please.
Result: 6.12

Query: Recorded Log K of CN(C)CCNC(=O)c1cccc2ccc(-c3ccc(-c4ccccc4)cc3)nc12 , please.
Result: 6.88

Reference for the values: ChEMBL document CHEMBL1124392
